Task for the reader: assign each of the following molecules its reported pIC50.
target: PI3K alfa (Homo sapiens, UniProt P42336); construct: for the p110-a subunit (with a deletion of the first 20 amino acids); His tag (C); made in house; host or cells: baculovirus; Tn5 (Trichoplusia ni) or TiniPro insect cells; test: PI3 kinase assay (Kinase-Glo luminescence), PI3K alfa; type: biochemical; conditions: Enzymatic Data; read-out: PI3K alfa IC50 [umol]
Sequence (P42336 with tags, fused parts or gaps limits assumed): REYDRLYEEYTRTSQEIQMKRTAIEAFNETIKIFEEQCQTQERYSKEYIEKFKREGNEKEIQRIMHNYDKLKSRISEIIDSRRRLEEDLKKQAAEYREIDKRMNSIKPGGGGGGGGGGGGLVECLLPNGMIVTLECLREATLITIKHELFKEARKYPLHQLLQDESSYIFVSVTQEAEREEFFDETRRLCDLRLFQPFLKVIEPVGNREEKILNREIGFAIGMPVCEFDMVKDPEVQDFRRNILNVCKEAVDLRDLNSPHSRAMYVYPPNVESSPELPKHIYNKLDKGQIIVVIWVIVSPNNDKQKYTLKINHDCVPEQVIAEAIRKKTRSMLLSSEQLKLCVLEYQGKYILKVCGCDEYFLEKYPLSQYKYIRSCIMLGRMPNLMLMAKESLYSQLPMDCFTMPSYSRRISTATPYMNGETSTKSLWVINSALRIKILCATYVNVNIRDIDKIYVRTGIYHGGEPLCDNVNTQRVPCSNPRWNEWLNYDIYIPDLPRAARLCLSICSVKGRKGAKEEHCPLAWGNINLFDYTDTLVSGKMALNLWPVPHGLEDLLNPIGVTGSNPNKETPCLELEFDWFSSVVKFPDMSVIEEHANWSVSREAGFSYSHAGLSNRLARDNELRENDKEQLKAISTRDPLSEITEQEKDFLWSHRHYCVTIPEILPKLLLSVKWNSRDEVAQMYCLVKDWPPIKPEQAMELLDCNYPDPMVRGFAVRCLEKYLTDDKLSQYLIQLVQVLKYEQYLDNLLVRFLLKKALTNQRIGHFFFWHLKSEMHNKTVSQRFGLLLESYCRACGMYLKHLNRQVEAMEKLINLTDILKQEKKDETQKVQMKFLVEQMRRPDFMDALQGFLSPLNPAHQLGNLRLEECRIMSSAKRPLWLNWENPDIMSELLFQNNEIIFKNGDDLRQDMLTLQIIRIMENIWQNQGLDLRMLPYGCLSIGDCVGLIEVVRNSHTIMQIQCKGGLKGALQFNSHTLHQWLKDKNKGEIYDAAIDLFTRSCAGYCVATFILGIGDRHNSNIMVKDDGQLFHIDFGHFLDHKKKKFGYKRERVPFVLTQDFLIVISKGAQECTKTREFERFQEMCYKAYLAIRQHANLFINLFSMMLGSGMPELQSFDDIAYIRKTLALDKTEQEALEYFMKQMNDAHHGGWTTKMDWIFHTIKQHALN
Answers are plain numbers, as −log10 of the molar value.

Look at each molecule and report its pIC50.
1. CN(C)CCN1CCN(C(=O)c2ccc(-c3cnc4ccc(-c5cnc(N)c(C(F)(F)F)c5)nn34)cc2F)CC1 [Example 107]
2. COC(=O)NCC1(COc2ccc(-c3ccc4ncc(-c5cnc(N)c(C(F)(F)F)c5)n4n3)cc2)COC1 [Example 173]

Marked response:
1: 7.59; 2: 7.41

----------
molecular target: PI3K gamma (Homo sapiens); construct: PI3Kγ BV-950 p110g(D144aa)-C-Term His Tag; His tag (C); made in house; host or cells: construct from the Roger Williams lab (MRC LMB) in pVL1393; baculovirus; Tn5 (Trichoplusia ni) or TiniPro insect cells; experiment: PI3 kinase assay (Kinase-Glo luminescence), PI3K gamma; format: biochemical; conditions: Enzymatic Data; read-out: PI3K gamma IC50 [umol]
Sequence (P48736 144-1102 limits assumed): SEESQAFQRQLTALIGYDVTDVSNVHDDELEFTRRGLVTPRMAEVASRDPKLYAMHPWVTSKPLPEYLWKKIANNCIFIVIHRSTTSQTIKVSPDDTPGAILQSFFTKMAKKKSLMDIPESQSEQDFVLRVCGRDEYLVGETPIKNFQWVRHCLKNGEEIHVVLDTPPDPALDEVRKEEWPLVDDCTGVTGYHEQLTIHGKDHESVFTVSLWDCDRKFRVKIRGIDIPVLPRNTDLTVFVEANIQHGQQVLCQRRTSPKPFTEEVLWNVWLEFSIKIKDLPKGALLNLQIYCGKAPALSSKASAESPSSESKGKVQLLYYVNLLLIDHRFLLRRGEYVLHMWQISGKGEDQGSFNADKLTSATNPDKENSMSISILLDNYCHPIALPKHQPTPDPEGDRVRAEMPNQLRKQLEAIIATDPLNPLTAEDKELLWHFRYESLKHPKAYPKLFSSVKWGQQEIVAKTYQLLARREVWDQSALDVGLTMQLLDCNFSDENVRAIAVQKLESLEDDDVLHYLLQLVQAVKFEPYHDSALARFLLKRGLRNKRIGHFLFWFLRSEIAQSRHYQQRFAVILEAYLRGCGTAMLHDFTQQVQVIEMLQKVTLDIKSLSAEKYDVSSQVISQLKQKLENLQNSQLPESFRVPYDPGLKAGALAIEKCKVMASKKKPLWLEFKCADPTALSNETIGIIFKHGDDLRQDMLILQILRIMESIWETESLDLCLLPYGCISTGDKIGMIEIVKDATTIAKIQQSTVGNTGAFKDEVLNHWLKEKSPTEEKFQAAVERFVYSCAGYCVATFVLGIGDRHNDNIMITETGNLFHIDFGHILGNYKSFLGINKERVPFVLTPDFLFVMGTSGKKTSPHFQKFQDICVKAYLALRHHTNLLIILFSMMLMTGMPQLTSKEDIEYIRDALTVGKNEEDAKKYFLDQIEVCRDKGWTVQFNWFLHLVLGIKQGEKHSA
Task for the reader: assign each of the following compounds its reported IC50.
Numbers only, in nM.

compound="Nc1ncc(-c2ccc3ncc(-c4ccc(C(=O)N5CCN(CCO)CC5)c(F)c4)n3n2)cc1C(F)(F)F [Example 113]" target_or_system="PI3K gamma (Homo sapiens)" readout_unit=nM recorded_measurement=555
compound="O=C1CCCN1CCOc1ccc(-c2ccc3ncc(-c4cnc5[nH]ccc5c4)n3n2)cc1 [Example 98]" target_or_system="PI3K gamma (Homo sapiens)" readout_unit=nM recorded_measurement=2210
compound="Nc1ncc(-c2ccc3ncc(-c4ccc(S(=O)(=O)CCN5CCOCC5)cc4)n3n2)cc1C(F)(F)F [Example 105]" target_or_system="PI3K gamma (Homo sapiens)" readout_unit=nM recorded_measurement=362

Look at each compound and report its IC50.
1. COc1cc(-c2cnc3ccc(-c4cnc(N)c(C(F)(F)F)c4)nn23)ccc1C(=O)NCCN1CCOCC1 [Example 115]
2. COc1ccc(-c2ccc3ncc(-c4cnc(N)cn4)n3n2)cc1OC [Example 38]
3. COc1cc(-c2cnc3ccc(-c4cnc(N)c(C(F)(F)F)c4)nn23)ccc1C(=O)N1CCN(CCN2CCOCC2)CC1 [Example 118]

Marked response:
1. 397
2. 1690
3. 405

----------
Molecular target: PI3K beta (Homo sapiens)
Construct: for the full-length p110-b subunit are generated and fused by overlapping PCR; His tag (C); Tn5 (Trichoplusia ni) or TiniPro insect cells
Sequence (P42338 with tags, fused parts or gaps limits assumed): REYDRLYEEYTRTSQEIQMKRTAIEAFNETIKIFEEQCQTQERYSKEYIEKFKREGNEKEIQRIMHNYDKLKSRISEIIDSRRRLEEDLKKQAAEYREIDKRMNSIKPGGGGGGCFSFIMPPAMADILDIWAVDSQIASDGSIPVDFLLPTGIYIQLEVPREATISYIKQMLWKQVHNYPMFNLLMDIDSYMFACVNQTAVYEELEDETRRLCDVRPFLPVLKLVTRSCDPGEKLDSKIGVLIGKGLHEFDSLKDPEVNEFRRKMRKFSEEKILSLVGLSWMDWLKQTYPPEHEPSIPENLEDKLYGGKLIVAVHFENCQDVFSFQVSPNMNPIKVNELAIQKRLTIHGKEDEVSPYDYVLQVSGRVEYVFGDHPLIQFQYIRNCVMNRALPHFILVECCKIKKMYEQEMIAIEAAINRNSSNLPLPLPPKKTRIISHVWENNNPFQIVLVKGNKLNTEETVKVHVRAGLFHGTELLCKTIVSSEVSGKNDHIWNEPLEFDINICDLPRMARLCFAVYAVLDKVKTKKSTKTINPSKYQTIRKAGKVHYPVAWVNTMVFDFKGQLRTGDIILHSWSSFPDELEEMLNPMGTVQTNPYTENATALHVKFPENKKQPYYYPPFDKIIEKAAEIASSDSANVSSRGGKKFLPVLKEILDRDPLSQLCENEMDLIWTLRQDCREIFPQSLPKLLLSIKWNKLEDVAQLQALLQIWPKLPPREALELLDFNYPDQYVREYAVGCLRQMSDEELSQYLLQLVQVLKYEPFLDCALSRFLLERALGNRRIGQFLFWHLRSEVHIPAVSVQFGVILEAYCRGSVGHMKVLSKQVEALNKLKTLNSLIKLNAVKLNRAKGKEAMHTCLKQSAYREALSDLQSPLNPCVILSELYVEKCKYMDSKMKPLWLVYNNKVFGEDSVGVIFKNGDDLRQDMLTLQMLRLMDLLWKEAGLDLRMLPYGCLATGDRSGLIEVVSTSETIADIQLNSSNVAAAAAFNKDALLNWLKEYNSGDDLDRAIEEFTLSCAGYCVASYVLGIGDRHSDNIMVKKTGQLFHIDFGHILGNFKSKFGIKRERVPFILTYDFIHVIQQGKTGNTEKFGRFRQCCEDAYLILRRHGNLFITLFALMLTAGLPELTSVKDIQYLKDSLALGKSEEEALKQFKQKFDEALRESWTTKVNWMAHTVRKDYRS
Experiment: PI3 kinase assay (Kinase-Glo luminescence), PI3K beta
Details: Enzymatic Data; read-out: PI3K beta IC50 [umol]
Description: In a more preferred assay, the kinase reaction is performed in a final volume of 10 μL per well of a low volume non binding CORNING, 384 well black plate (Cat. No. #3676). The final concentrations of ATP and phosphatidyl inositol (PI) in the assay are 1 μM and 10 μg/mL respectively. […] […] is determined by a four parameter curve fitting routine that comes aloneg with “excel fit”. […] Alternatively, IC50 values are calculated using idbsXLfit model 204, which is a 4 parameter logistic model. […]
Task for the reader: assign each of the following compounds its reported pIC50.
Answers are plain numbers, as −log10 of the molar value.

The examples below pair each entry with its known result.
chem_smiles=COc1cc(-c2cnc3ccc(-c4cnc(N)c(C(F)(F)F)c4)nn23)ccc1C(=O)N1CCN(CCN2CCOCC2)CC1 target_or_system="PI3K beta (Homo sapiens)" recorded_measurement=6.75
chem_smiles=CC(C)S(=O)(=O)c1ccc(-c2cnc3ccc(-c4cnc(N)c(C(F)(F)F)c4)nn23)cc1 target_or_system="PI3K beta (Homo sapiens)" recorded_measurement=6.63
chem_smiles=Nc1ncc(-c2ccc3ncc(-c4ccc(C(=O)N5CCN(CCO)CC5)c(F)c4)n3n2)cc1C(F)(F)F target_or_system="PI3K beta (Homo sapiens)" recorded_measurement=7.17

Look at each compound and report its pIC50.
1. Nc1ncc(-c2ccc3ncc(-c4ccc(OCCCc5ccncc5)cc4)n3n2)cc1C(F)(F)F
2. Nc1ncc(-c2ccc3ncc(-c4ccc(C(=O)NCCN5CCOCC5)c(F)c4)n3n2)cc1C(F)(F)F
3. COC(=O)NCC1(COc2ccc(-c3ccc4ncc(-c5cnc(N)c(C(F)(F)F)c5)n4n3)cc2)COC1
4. Nc1ncc(-c2cnc3ccc(-c4cnc(N)c(C(F)(F)F)c4)nn23)cn1

Marked response:
[5.69, 7.09, 5.99, 8.40]
